System: VicR (Streptococcus mutans)
Sequence (I6L8Z5 entry or part of it): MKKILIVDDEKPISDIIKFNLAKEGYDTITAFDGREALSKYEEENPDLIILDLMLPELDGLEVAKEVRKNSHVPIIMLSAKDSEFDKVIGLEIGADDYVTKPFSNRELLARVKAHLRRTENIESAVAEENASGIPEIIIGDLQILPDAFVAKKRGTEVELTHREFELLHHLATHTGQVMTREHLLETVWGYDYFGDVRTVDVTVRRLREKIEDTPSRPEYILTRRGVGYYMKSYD
Assay Info: bio-layer interferometry, biotinylated 2B5 on streptavidin sensors; pulldown of recombinant VicR and VicR-N
Measurement Label: Kd
Dear colleague, please send the value followed by its unit.

Entry under review: CCCCCCCCCCCCCCCCN(CCCCCCc1cn(CCNC(=O)CCCC[C@@H]2SC[C@@H]3NC(=O)N[C@@H]32)nn1)C(=O)CCCc1c[nH]c(N)n1 . Reported Kd? 38 µM
